In this section we review reported cell viability values for a set of compounds.
Test system: ML-2
Assay: cell viability (% survival relative to DMSO control, bortezomib = 0%); higher = less cytotoxic
Conditions: 100 nM; 72 h
Output spec: scalar in %, unitless text.

1. c1ccc2c(c1)SCc1c-2[nH]c2ccccc12 : 89.8
2. CC(=O)N[C@@H](CS)C(=O)O : 97.3
3. C#CCN[C@@H]1CCc2ccccc21 : 105

Prompt line: Answer with reported cell viability of OCCN(CCO)c1nc(N2CCCCC2)c2nc(N(CCO)CCO)nc(N3CCCCC3)c2n1
Response line: 123

Prompt line: Answer with reported cell viability of Oc1ncc(F)c(O)n1
Response line: 102

Reference source for all entries: the supplement of paper PMC8671470
